target: NLRP3 (Homo sapiens); assay: Human whole blood IL1β release assay (LPS + nigericin, AlphaLisa IL-1β; HWB IC50); format: cell-based; set-up: Human whole blood in Li-heparin tubes was obtained from healthy donors from a volunteer donor panel; from tissue; host or cells: human whole blood from healthy donors; conditions: IL-1β release
Sequence (Q96P20 whole entry): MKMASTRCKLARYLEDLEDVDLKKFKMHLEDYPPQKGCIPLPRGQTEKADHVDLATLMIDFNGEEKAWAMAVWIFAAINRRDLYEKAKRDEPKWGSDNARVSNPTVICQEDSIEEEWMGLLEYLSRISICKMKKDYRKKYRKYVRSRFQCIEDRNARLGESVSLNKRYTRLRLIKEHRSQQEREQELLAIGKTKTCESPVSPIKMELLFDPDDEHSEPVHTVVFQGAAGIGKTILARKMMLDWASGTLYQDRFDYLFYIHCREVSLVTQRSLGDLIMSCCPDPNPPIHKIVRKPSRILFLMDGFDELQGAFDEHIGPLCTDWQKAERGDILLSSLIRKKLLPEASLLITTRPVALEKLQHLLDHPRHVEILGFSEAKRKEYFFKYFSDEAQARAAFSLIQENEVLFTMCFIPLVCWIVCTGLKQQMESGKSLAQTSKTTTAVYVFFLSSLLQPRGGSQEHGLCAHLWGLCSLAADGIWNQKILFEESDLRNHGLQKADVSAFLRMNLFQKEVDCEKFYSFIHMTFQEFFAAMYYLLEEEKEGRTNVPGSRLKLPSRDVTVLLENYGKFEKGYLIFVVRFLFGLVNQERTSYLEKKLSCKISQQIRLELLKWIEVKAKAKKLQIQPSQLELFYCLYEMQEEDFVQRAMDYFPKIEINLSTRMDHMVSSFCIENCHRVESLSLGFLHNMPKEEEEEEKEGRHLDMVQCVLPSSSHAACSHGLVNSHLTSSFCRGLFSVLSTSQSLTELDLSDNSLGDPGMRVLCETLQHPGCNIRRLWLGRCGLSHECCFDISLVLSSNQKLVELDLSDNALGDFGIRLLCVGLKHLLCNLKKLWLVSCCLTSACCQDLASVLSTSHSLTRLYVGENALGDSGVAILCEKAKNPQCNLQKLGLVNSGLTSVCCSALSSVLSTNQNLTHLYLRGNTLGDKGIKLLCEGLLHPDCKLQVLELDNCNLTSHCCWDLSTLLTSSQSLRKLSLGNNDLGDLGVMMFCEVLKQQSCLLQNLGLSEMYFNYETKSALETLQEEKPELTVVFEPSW
Counter-ions that a name gives are not always drawn.
Items are presented alongside their recorded IC50.

Some entries whose results are on file:
# COMPOUND, RESULT
data = [
    ("COc1cc(-c2ccc3c(c2NC(=O)NS(=O)(=O)c2ccn(C4(CN5CCC5)CCC4)n2)CCC3)ccn1 [Example 312]", "≤ 500 nM"),
    ("CN(C)c1cncc(S(=O)(=O)NC(=O)Nc2c(-c3ccncc3)cc(F)c3c2CCC3)n1 [Example 105]", "≤ 1000 nM"),
    ("O=C(Nc1c(-c2ccnc(OC3CC3)c2)ccc2c1CCC2)NS(=O)(=O)c1ccn(C2CC2)n1 [Example 261, sodium salt]", "≤ 5000 nM"),
]

Note: attention shifts to another entry.
Query: Would you mind telling me what IC50 value was observed for CC(C)n1ccc(S(=O)(=O)NC(=O)Nc2c(-c3ccnc(N)c3)ccc3c2CCC3)n1 [Example 285] ?
Response: ≤ 5000 nM
